- study.target: Ubiquitin carboxyl-terminal hydrolase 1 (Homo sapiens)
- assay.comment: Inhibitors of USP1/UAF1: Pilot qHTS (AID 504865);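 also: rhodamine fluorescence freed from ubiquitin-rhodamine substrate followed over time; top concentration of the series differs between compounds; nearly all actives have a fitted effect of over 35% in size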
- measurement.conditions: purified USP1/UAF1, Ub-rhodamine cleavage fluorescence; series mostly up to 54.9 µM
Inconclusive results are not listed. Calls of active or inactive are those of the source. Calls follow the shape of the dose curve; as a rule, active = well fitted inhibition curve with a large enough effect; inconclusive = small, poorly fitted or top-dose-only effect; inactive = flat fitted curve, though single readings scatter.
Pick one: active, inactive

{"compound": "COc1ncc2nc(-c3cccs3)c(=O)n(CCC#N)c2n1", "study.target": "Ubiquitin carboxyl-terminal hydrolase 1 (Homo sapiens)", "class": "inactive"}

Request: What is the recorded call for this compound in the test? CC(C)CN(C[C@@H](O)[C@H](Cc1ccccc1)NC(=O)O[C@H]1CCOC1)S(=O)(=O)c1ccc(N)cc1
Result: inactive

Request: So what was the verdict on COc1ccc2[nH]cc(CCNc3cc(-c4ccccc4OC)ncn3)c2c1 in this test?
Result: inactive
